The following compounds are listed with their measured residual activity values.
molecular target: Glutamine synthetase (Oryza sativa) (UniProt Q01HZ7); assay: Inhibition of Oryza sativa cv. Gigante vercellese (rice) glutamine synthetase at 1 mM by transferase assay; details: values are per cent of control
Numbers only; they are read as %.

Would you please look over these solved cases?
{"columns": ["smiles-input", "assay-target", "residual activity (%)"],
 "data": [
  ["O=P(O)(O)C(NC1CCCCC1)P(=O)(O)O", "Glutamine synthetase (Oryza sativa) (UniProt Q01HZ7)", 46.1],
  ["O=P(O)(O)C(NCc1ccccn1)P(=O)(O)O", "Glutamine synthetase (Oryza sativa) (UniProt Q01HZ7)", 54.6],
  ["Cc1cccc(NC(P(=O)(O)O)P(=O)(O)O)n1", "Glutamine synthetase (Oryza sativa) (UniProt Q01HZ7)", 25.9]
]}

Response field residual activity (Glutamine synthetase (Oryza sativa) (UniProt Q01HZ7)) for item O=P(O)(O)C(Nc1ncccn1)P(=O)(O)O : 76.8

Response field residual activity (Glutamine synthetase (Oryza sativa) (UniProt Q01HZ7)) for item Cc1ccccc1CNC(P(=O)(O)O)P(=O)(O)O : 50.8

Response field residual activity (Glutamine synthetase (Oryza sativa) (UniProt Q01HZ7)) for item O=P(O)(O)C(Nc1ccccc1)P(=O)(O)O : 44.3

Response field residual activity (Glutamine synthetase (Oryza sativa) (UniProt Q01HZ7)) for item O=P(O)(O)C(Nc1cc(Cl)cc(Cl)c1)P(=O)(O)O : 38.1

Response field residual activity (Glutamine synthetase (Oryza sativa) (UniProt Q01HZ7)) for item O=P(O)(O)C(Nc1ccc(Cl)cn1)P(=O)(O)O : 52.8

Response field residual activity (Glutamine synthetase (Oryza sativa) (UniProt Q01HZ7)) for item O=P(O)(O)C(NCc1ccccc1)P(=O)(O)O : 102

Response field residual activity (Glutamine synthetase (Oryza sativa) (UniProt Q01HZ7)) for item Cc1ccc(NC(P(=O)(O)O)P(=O)(O)O)cc1 : 93.8

Response field residual activity (Glutamine synthetase (Oryza sativa) (UniProt Q01HZ7)) for item NC(P(=O)(O)O)P(=O)(O)O : 96.4

Response field residual activity (Glutamine synthetase (Oryza sativa) (UniProt Q01HZ7)) for item O=P(O)(O)C(Nc1ccccn1)P(=O)(O)O : 60.1

====

Molecular target: Glutamine synthetase (Oryza sativa, UniProt Q01HZ7)
Sequence (Q01HZ7 whole entry): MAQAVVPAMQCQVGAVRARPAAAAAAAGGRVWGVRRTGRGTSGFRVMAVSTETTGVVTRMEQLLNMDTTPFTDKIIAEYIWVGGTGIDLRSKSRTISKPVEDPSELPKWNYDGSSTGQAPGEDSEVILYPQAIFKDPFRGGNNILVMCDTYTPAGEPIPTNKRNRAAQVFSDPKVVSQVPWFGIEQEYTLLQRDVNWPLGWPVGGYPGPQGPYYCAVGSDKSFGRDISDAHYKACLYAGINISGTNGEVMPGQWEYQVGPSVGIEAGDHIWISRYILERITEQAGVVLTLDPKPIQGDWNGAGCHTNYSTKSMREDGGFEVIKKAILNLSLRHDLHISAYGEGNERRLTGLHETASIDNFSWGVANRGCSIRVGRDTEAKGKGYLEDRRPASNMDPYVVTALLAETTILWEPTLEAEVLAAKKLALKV
Assay: Inhibition of Oryza sativa cv. Gigante vercellese (rice) glutamine synthetase after 30 min by hemibiosynthetic assay
Settings: read-out: I50
measure-name: IC50 (µM)
Numbers only; they are read as µM.

Would you please look over these solved cases?
{"columns": ["molecule", "measure-name", "number"],
 "data": [
  ["Cc1ccc(NC(P(=O)(O)O)P(=O)(O)O)cc1 [(P-TOLYLAMINO)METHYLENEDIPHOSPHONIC ACID]", "IC50", 774],
  ["O=P(O)(O)C(Nc1ccc(Cl)cn1)P(=O)(O)O", "IC50", 96],
  ["O=P(O)(O)C(NC1CCCCC1)P(=O)(O)O", "IC50", 461],
  ["O=P(O)(O)C(Nc1cc(Cl)cc(Cl)c1)P(=O)(O)O", "IC50", 88],
  ["O=P(O)(O)C(NCCc1ccc(O)cc1)P(=O)(O)O", "IC50", 695]
]}

Reported IC50 for CP(=O)(O)CC[C@H](N)C(=O)O [PHOSPHINOTHRICIN] was 49

Reported IC50 for O=[N+]([O-])c1cccc(NC(P(=O)(O)O)P(=O)(O)O)c1 was 1620

Reported IC50 for O=C(O)c1cccnc1NC(P(=O)(O)O)P(=O)(O)O [2-(DIPHOSPHONOMETHYLAMINO)NICOTINIC ACID] was 624

Reported IC50 for O=P(O)(O)C(NCc1ccccn1)P(=O)(O)O was 103

Reported IC50 for O=P(O)(O)C(Nc1ccccn1)P(=O)(O)O was 215
